Sourced from the NIST ThermoML archive (doi:10.1021/je200327s)

Details: 298.2 K; 101.3 kPa; Liquid; Vibrating tube method
ASSAY_METRIC: mass density (kg/m3)

- CCCCCCC [heptane]: 679.857
- CCCCCCCC [octane]: 698.569
- CCCCCCCCC [nonane]: 713.938
- CC(C)CC(C)(C)C [2,2,4-trimethylpentane]: 687.721
